Assay System: human ACC2 (Homo sapiens)
Construct: made in house; host or cells: insect cells (baculoviral expression system)
Assay Comment: ACC2 assay, spectrophotometric 384 well assay (NADH-linked, coupled lactate dehydrogenase/pyruvate kinase)
Format: biochemical
Setup Conditions: ACC2 assay, hACC2 construct lacking 128 N-terminal amino acids, 25° C., 340 nm; read-out: IC50
Readout Label: IC50 (µM)
Enter your answer as a number in µM; do not include the unit.

Compound	IC50 (µM)
CCC(C)Oc1ccc(N2CCC(c3ccc([C@H](C)NC(C)=O)cc3)CC2)c(OC)c1 (some centres unmarked) [Example 1.39]	0.13
CC(=O)N(C)[C@@H](C)c1ccc(C2CCN(c3ccc(OCC4CC4)cc3)CC2)cc1 [Example 39.1]	12
CC(=O)N[C@@H](C)c1ccc(C2CCN(c3cc(Cl)nc(N4CCCC4)n3)CC2)cc1 [Example 5.200]	7.5
CC(=O)N[C@@H](C)c1ccc(C2CCN(c3cc(C#N)ccn3)CC2)cc1 [Example 5.28]	8
CCOC(=O)c1cc(C#N)c(N2CCC(c3ccc([C@H](C)NC(C)=O)cc3)CC2)nc1C(F)(F)F [Example 5.15]	4.9

[in] Write down the reported IC50 (system: human ACC2 (Homo sapiens)) of CC(=O)N[C@@H](C)c1ccc(C2CCN(c3ccc(OCC4CC4)nc3C#N)CC2)cc1 [Example 1.183]
[out] 0.15

[in] Write down the reported IC50 (system: human ACC2 (Homo sapiens)) of C[C@H](NC(=O)C1CC1)c1ccc(C2CCN(c3cc4c(cc3F)OCCCO4)CC2)cc1 [Example 1.185]
[out] 22.1

[in] Write down the reported IC50 (system: human ACC2 (Homo sapiens)) of CNC(=O)CNC(=O)c1cnc(N2CCC(c3ccc([C@H](C)NC(C)=O)cc3)CC2)nc1 [Example 18.72]
[out] 8.9

---

pIC50 for assorted compounds
Assay System: human ACC2 (Homo sapiens, UniProt O00763)
Construct: made in house; host or cells: insect cells (baculoviral expression system)
Sequence (O00763 129-2458 limits assumed): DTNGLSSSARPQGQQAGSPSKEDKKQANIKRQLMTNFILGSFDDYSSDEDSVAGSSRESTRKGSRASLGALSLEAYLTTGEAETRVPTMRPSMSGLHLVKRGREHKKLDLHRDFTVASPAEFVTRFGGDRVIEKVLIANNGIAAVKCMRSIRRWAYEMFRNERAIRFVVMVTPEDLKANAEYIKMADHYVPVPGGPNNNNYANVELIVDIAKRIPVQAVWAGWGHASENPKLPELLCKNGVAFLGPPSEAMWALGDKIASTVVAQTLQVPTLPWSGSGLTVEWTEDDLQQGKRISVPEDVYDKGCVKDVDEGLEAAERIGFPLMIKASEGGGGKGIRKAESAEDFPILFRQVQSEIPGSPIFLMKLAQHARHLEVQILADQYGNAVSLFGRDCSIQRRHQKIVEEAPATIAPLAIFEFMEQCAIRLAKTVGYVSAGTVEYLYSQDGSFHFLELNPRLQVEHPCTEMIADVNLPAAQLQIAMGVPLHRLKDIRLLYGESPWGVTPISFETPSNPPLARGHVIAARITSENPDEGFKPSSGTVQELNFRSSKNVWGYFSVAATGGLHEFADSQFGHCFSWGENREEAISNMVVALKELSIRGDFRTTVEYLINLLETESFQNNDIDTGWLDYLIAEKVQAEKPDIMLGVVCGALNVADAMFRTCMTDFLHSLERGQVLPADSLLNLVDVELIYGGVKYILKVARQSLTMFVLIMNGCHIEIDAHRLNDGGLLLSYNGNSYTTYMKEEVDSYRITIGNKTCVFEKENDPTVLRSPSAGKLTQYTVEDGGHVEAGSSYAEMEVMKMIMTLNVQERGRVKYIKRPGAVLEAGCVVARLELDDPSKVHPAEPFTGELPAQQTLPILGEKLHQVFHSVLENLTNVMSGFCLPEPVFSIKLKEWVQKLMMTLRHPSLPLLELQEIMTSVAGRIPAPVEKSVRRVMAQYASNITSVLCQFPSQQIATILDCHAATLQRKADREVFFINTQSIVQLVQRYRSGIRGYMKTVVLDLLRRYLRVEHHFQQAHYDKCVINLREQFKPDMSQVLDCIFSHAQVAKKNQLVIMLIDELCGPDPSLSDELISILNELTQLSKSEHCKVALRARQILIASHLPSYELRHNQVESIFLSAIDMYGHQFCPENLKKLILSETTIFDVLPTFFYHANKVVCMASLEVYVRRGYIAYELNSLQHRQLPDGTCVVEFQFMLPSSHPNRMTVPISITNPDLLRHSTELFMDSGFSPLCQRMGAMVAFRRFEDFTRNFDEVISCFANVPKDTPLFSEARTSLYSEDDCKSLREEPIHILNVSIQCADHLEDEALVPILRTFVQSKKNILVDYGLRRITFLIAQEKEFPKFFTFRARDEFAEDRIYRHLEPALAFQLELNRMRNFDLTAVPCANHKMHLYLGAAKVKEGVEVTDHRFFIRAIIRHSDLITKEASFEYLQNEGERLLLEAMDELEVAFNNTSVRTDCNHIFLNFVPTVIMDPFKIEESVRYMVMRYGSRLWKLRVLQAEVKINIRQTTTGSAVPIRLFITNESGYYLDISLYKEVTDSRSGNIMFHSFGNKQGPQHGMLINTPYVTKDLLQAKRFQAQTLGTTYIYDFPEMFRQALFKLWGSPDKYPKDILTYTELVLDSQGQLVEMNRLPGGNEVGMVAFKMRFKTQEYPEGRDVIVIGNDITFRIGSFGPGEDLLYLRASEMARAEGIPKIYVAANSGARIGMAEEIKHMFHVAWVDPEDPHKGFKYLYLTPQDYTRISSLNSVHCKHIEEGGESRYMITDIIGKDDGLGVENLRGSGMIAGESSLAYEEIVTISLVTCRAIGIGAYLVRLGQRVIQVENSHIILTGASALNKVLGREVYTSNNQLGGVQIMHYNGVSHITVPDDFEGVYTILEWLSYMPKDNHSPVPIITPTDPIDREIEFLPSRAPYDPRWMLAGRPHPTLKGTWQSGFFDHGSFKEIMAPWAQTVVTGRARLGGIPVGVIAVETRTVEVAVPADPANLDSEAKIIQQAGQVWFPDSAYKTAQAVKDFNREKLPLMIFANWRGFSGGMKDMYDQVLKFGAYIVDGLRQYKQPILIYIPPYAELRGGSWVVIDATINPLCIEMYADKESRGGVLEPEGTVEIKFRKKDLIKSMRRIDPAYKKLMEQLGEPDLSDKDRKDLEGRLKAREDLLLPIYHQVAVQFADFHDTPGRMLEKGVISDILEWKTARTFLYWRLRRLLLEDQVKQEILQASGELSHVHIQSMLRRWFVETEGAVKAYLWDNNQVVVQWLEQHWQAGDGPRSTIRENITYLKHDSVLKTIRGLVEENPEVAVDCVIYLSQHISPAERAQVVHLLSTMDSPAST
Assay Comment: ACC2 assay, spectrophotometric 384 well assay (NADH-linked, coupled lactate dehydrogenase/pyruvate kinase)
Type: biochemical
Setup Conditions: ACC2 assay, hACC2 construct lacking 128 N-terminal amino acids, 25° C., 340 nm; read-out: IC50
Would you please state pIC50, meaning minus log10 of the concentration in mol/L, as a bare number?

Example cases with answers are listed next.
CC(=O)N[C@@H](C)c1ccc(C2CCN(c3ncc(-c4ccc(F)cc4C)cn3)CC2)cc1 6.41
CCOc1ccc(N2CCC(c3ccc([C@H](C)NC(=O)Nc4nccs4)cc3)CC2)cc1 4.85
CC(=O)N[C@@H](C)c1ccc(C2CCN(c3ncc(-c4ccc(C)cc4Cl)cn3)CC2)cc1 6.80

Consider the record given below.
[in] Quote pIC50 reported for CC(=O)N[C@@H](C)c1ccc(C2CCN(c3ncc(C(=O)N4CCC4)cn3)CC2)cc1 please.
[out] 5.40

---

Assay System: human ACC2 (Homo sapiens)
Construct: made in house; host or cells: insect cells (baculoviral expression system)
Assay Comment: ACC2 assay, spectrophotometric 384 well assay (NADH-linked, coupled lactate dehydrogenase/pyruvate kinase)
Format: biochemical
Setup Conditions: ACC2 assay, hACC2 construct lacking 128 N-terminal amino acids, 25° C., 340 nm; read-out: IC50
Readout Label: pIC50
Would you please state pIC50, meaning minus log10 of the concentration in mol/L, as a bare number?

Example cases with answers are listed next.
Compound	Readout Label	Test Result
CC(=O)N[C@@H](C)c1ccc(C2CCN(c3cccc(OCC(C)(C)C)c3)CC2)cc1	pIC50	7.40
CC(=O)N[C@@H](C)c1ccc(C2CCN(c3ccc(OC4CCC4)c(C#N)c3)CC2)cc1	pIC50	5.64
CC(=O)N[C@@H](C)c1ccc(C2CCN(c3ncc(-c4ccc(F)c(C)c4)cn3)CC2)cc1	pIC50	6.59
COC(=O)c1cnc(N2CCC(c3ccc([C@H](C)NC(C)=O)cc3)CC2)s1	pIC50	5.57
CC(=O)N[C@@H](C)c1ccc(C2CCN(c3cc(N4CCC4)ncn3)CC2)cc1	pIC50	5.60
CC(=O)N[C@@H](C)c1ccc(C2CCN(c3ccc(OCC4CCCO4)cc3)CC2)cc1 (some centres unmarked)	pIC50	6.04
CC(=O)N[C@@H](C)c1ccc(C2CCN(c3ncc(C(=O)Nc4cccc(F)c4)cn3)CC2)cc1	pIC50	5.85

Consider the record given below.
[in] Write down the reported pIC50 (system: human ACC2 (Homo sapiens)) of CC(=O)N[C@@H](C)c1ccc(C2CCN(c3ccnc(Oc4cccc(F)c4)n3)CC2)cc1
[out] 6.46
